- System: MOLT-4 leukemia
- experimental_protocol: NCI-60 one-dose screen, 48 h
- details: 10 µM
- Procedure: Growth inhibition of the MOLT-4 human tumor cell line is measured as a screen for anti-cancer activity. Cells are grown in 96 well plates and exposed to the test compound for 48 hours. Compounds are tested at a single concentration, which is 10^-5 M for most compounds. The reported endpoint is percent growth (GI% or GIPRCNT), where numbers from 0 - 100% represent growth inhibition, and numbers from -100% - 0 represent cell death. For example, a value of 40 represents 60% growth inhibition. […]
Compounds without any hit were thinned out: in the full panel of roughly 83,000, 20% have a hit. The source made the active and inactive calls. The calls were made as follows: active = growth percent below 10; inactive = the rest.
# output must be one of True for active, False for inactive

compound	tested_target	assigned_label
Cc1cc(Nc2ccc(Cl)cc2)nc(NCCCNc2ccnc3cc(Cl)ccc23)n1	MOLT-4 leukemia	True
Nc1nccc(Nc2ccccc2)n1	MOLT-4 leukemia	False

Status in this test for O=C1/C(=C/c2ccc(Cl)cc2)SC(=Nc2ccc(Cl)cc2)N1Cc1nc2ccccc2[nH]1 ? False

What is the recorded call for this compound in the test? CSc1cc(SC)ncn1 False

Can you look up the reported call for O=C(Nc1cccc(-n2cc(-c3ccncc3)c(-c3ccc(O)c(Cl)c3)n2)c1)c1cccc(C(F)(F)F)c1 for me? False

So what was the verdict on C#Cc1ccc(-n2c(/C=C/c3ccc(O)c(OC)c3)nc3ncccc3c2=O)cc1 in this test? False

Which outcome did this test record for the compound COc1cc(C2CC(c3ccc(Nc4ccnc5cc(Cl)ccc45)cc3)=NN2c2ccc(Cl)cc2)cc(OC)c1OC (centres undefined) ? False

Per the assay record, what outcome was assigned to C#Cc1ccc(-n2c(/C=C/c3ccc(O)cc3)nc3ncccc3c2=O)cc1 ? False

Field: outcome | Entry: CC/C(=C(/c1ccc(OCCN(C)C)cc1)c1ccc(OC(=O)CCCCCCCCC(=O)c2c(C)[nH]c(/C=C3\N=C(c4ccc[nH]4)C=C3OC)c2C)cc1)c1ccccc1 False

Reference source for all entries: PubChem BioAssay (NCI)
